Let's look at some molecules and their measured IC50.
Biological target: recombinant full-length human GSK3β (Homo sapiens, UniProt P49841)
Construct: recombinant full-length human GSK3β (Upstate); purchased Upstate
Sequence (P49841 whole entry): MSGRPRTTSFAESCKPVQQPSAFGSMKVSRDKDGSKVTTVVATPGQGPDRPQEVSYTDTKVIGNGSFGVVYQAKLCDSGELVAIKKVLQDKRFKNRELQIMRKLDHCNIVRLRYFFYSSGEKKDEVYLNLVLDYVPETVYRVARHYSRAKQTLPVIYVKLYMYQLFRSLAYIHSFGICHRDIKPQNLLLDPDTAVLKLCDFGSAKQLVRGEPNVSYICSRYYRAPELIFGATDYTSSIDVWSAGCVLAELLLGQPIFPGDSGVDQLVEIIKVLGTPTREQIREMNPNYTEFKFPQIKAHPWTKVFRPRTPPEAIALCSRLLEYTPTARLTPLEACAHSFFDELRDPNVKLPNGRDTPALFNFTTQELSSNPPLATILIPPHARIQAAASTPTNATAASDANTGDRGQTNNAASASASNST
Assay: cell-free GSK3 kinase assay (KinaseGlo luciferase)
Assay type: biochemical
Conditions: Table 1; 5 μM ATP, 1 hour at 30 degrees Celsius
reported_metric: IC50

molecule=Nc1c(F)c(NCCOc2ccc(C3CCCCC3)cc2)c2c3c1c(=O)c(C(=O)O)cn3C1(CCCC1)CO2 result="> 150 nM"
molecule=Cc1nn(C)c(C)c1CCCNc1c(F)c(N)c2c(=O)c(C(=O)O)cn3c2c1OCC31CCCC1 result="< 15 nM"
molecule=Nc1c(F)c(NCCNc2ccccn2)c2c3c1c(=O)ccn3C1(CCC1)CCO2 result="16 to 60 nM"
molecule=Nc1c(Cl)c(NCCNc2ccccn2)c2c3c1c(=O)c(C(=O)O)cn3C1(CCC1)CCO2 result="61 to 150 nM"
molecule=Cc1cc(NCCNc2c(F)c(N)c3c(=O)c(C(=O)O)cn4c3c2OCC42CCCC2)c2ccccc2n1 result="< 15 nM"
molecule=Nc1c(F)c(NCCCc2ccccn2)c2c3c1c(=O)ccn3C1(CCCC1)CO2 result="16 to 60 nM"
molecule=Cn1ccnc1SCCNc1c(F)c(N)c2c(=O)c(C(=O)O)cn3c2c1OCC31CCCC1 result="< 15 nM"
molecule=Nc1c(F)c(N[C@H]2CC[C@H](c3ccccn3)C2)c2c3c1c(=O)c(C(=O)O)cn3C1(CCCC1)CO2 result="< 15 nM"
molecule=Nc1c(F)c(NCCCn2ccnc2)c2c3c1c(=O)ccn3C1(CCC1)CCO2 result="< 15 nM"
molecule=Nc1c(F)c(NCCCn2ccnc2)c2c3c1c(=O)c(C(=O)O)cn3C1(CCCC1)CO2 result="< 15 nM"
molecule="Nc1c(F)c(NCCCn2ccnc2)c2c3c1c(=O)c(C(=O)O)cn3C1(CCC1)CCO2 [Compound 60]" result="< 15 nM"
molecule=Nc1c(F)c(NCCCc2ccc(F)cc2)c2c3c1c(=O)c(C(=O)O)cn3C1(CCCC1)CO2 result="< 15 nM"
molecule=Nc1c(F)c(N[C@H]2CC[C@H](n3ccnc3)C2)c2c3c1c(=O)c(C(=O)O)cn3C1(CCCC1)CO2 result="< 15 nM"
molecule=Nc1c(F)c(NCCCc2ccccn2)c2c3c1c(=O)ccn3C1(CCC1)CCO2 result="61 to 150 nM"
molecule=Nc1c(F)c(NCCCc2ccccn2)c2c3c1c(=O)c(C(=O)O)cn3C1(CCCC1)CO2 result="< 15 nM"
molecule=Nc1c(F)c(NCCCc2ccccc2)c2c3c1c(=O)c(C(=O)O)cn3C1(CCCC1)CO2 result="< 15 nM"
molecule=Cc1c(C(=O)O)c(=O)c2c(N)c(F)c(NCCNc3ccccn3)c3c2n1C1(CCC1)CCO3 result="16 to 60 nM"
molecule=Cc1nnc(SCCNc2c(F)c(N)c3c(=O)c(C(=O)O)cn4c3c2OCC42CCCC2)[nH]1 result="< 15 nM"
molecule="CC1CC2(CCC2)n2cc(C(=O)O)c(=O)c3c(N)c(F)c(NCCNc4ccccn4)c(c32)O1 (stereo not shown)" result="> 150 nM"
molecule=COc1cccc(CCCNc2c(F)c(N)c3c(=O)c(C(=O)O)cn4c3c2OCC42CCCC2)c1 result="< 15 nM"
molecule=NC(=O)c1cn2c3c(c(NCCNc4ccccn4)c(F)c(N)c3c1=O)OCCC21CCC1 result="< 15 nM"
molecule=Nc1c(F)c(NCCCNC(=O)c2ccco2)c2c3c1c(=O)c(C(=O)O)cn3C1(CCCC1)CO2 result="16 to 60 nM"
molecule=Nc1c(F)c(NCCOc2ccc(Cl)cc2)c2c3c1c(=O)c(C(=O)O)cn3C1(CCCC1)CO2 result="61 to 150 nM"
molecule=Nc1c(F)c(NCCCc2ccncc2)c2c3c1c(=O)c(C(=O)O)cn3C1(CCCC1)CO2 result="< 15 nM"
molecule=Nc1c(F)c(NCCCc2ccc(F)cc2)c2c3c1c(=O)c(C(=O)O)cn3C1(CCC1)CCO2 result="< 15 nM"
molecule=Nc1c(F)c(NCCNc2ccccn2)c2c3c1c(=O)c(C(=O)O)cn3CC1(CCC1)CO2 result="61 to 150 nM"
molecule="Nc1c(F)c(NCC(O)Cn2cnc3ccccc32)c2c3c1c(=O)c(C(=O)O)cn3C1(CCCC1)CO2 (stereo not shown)" result="61 to 150 nM"
molecule=Nc1c(F)c(N[C@@H]2CC[C@H](c3ccccn3)C2)c2c3c1c(=O)c(C(=O)O)cn3C1(CCCC1)CO2 result="> 150 nM"
molecule=NNC(=O)c1cn2c3c(c(NCCNc4ccccn4)c(F)c(N)c3c1=O)OCCC21CCC1 result="< 15 nM"
molecule=Nc1c(F)c(NCCCc2ccccn2)c2c3c1c(=O)c(C(=O)O)cn3C1(CCC1)CCO2 result="< 15 nM"
molecule="Nc1c(F)c(NCCCn2ccnc2)c2c3c1c(=O)c(C(=O)O)cn3C1(CCC1)CCO2 [Compound 97]" result="16 to 60 nM"
